// data source = the array DNA melting data of Ke et al.

Record form. Attribute: Tm. Fill in for each entry.
- EXPERIMENTAL DETAILS: melting temperature; melt of duplexes
- RUN CONDITIONS: sodium 0.0675 M; strand 1 µM
Express your answer in °C, writing the number without its unit.

Task: So what's the measured Tm for this one? CGACGTGCAACATGTGCTG+CAGCACATTACGCACGTCG ((((((((...((((((((+))))))))...))))))))
Output: 47.9

Task: For the substance shown here, CGACGTGCGGTATGTGCTG+CAGCACATAGAGCACGTCG ((((((((..(((((((((+)))))))))..)))))))) , give the reported Tm.
Output: 56

Task: If you can, please state the reported Tm value of CGACGTGCACGATGTGCTG+CAGCACATTCAGCACGTCG ((((((((...((((((((+))))))))...)))))))) .
Output: 45.5

Task: So what does the record say about Tm for CGACGTGCGTCATGTGCTG+CAGCACATTCTGCACGTCG ((((((((...((((((((+))))))))...)))))))) ?
Output: 49.2
